test system: Plasmodium berghei; test: Luciferase/luciferin-expressing antifolate-resistant parasites were used to infect a culture of HepG2 cells that were pre-incubated with compounds. Infected hepatocytes emit light due to the luciferase reaction. Assay results are presented as the percent inhibition of light emission compared to control. […]; type: functional; settings: sporozoite, read-out: LUCIFERASE INFECTION ASSAY - IC90
ASSAY_READOUT: IC90

INSERT INTO assay_data (compound, target_desc, assay_readout, value_observed) VALUES
  ('COc1ccc(C)cc1NC(=O)CN(Cc1ccc2c(c1)OCO2)C1CCCC1', 'Plasmodium berghei', 'IC90', '> 10 µM'),
  ('Cn1nc(-c2ccc(-c3ccnc(SCC(=O)c4ccccc4)n3)s2)cc1C(F)(F)F', 'Plasmodium berghei', 'IC90', '> 7.17 µM'),
  ('CN1CCN(c2ccc(NC(=O)c3c[nH]c4ccc(Br)cc34)cn2)CC1', 'Plasmodium berghei', 'IC90', '> 10 µM'),
  ('Cc1nc(N2N=C3/C(=C/c4ccc(F)cc4)CCCC3C2c2ccc(F)cc2)sc1C(=O)O (centres undefined)', 'Plasmodium berghei', 'IC90', '> 10 µM');

Just for reference, ChEMBL document CHEMBL4483862 is where these values come from.
